Exercise: state measured viability, T/C for each of the molecules provided.
- System: 699152-130-R-J1-PDC complex spheroid growth;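 also: compound exposure lasted 7 days after spheroids had grown for 3 days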
- experiment notes: Anticancer human tumor 699152-130-R-J1-PDC patient-derived pancreatic carcinoma cell line growth inhibition [AhR]
- measurement parameters: second compound 0.1 µM; first compound 0.00949 µM; active compounds read low
// units = %; emit number, no label

Value of viability, T/C reported for the molecule CCN(c1cc(-c2ccc(CN3CCOCC3)cc2)cc(C(=O)NCc2c(C)cc(C)[nH]c2=O)c1C)C1CCOCC1 + Cc1cncc(-c2nc(NCCc3c[nH]c4ccccc34)c3ncn(C(C)C)c3n2)c1 is 101

Value of viability, T/C reported for the molecule O=C(C=Cn1cnc(-c2cc(C(F)(F)F)cc(C(F)(F)F)c2)n1)NNc1cnccn1 + Cc1cncc(-c2nc(NCCc3c[nH]c4ccccc34)c3ncn(C(C)C)c3n2)c1 is 97.5

Value of viability, T/C reported for the molecule O=C(C=Cn1cnc(-c2cc(C(F)(F)F)cc(C(F)(F)F)c2)n1)NNc1cnccn1 + CC(CO)NC(=O)c1cc(-c2ccc(Cl)cc2)nn(-c2cnn(C)c2)c1=O is 87.8

Value of viability, T/C reported for the molecule CCN(c1cc(-c2ccc(CN3CCOCC3)cc2)cc(C(=O)NCc2c(C)cc(C)[nH]c2=O)c1C)C1CCOCC1 + Cc1ccccc1N=Nc1ccc(NC(=O)c2ccnn2C)c(C)c1 is 111

Value of viability, T/C reported for the molecule CC(C)CC(NC(=O)C(Cc1ccccc1)NC(=O)c1cnccn1)B(O)O (stereo unspecified) + CC(CO)NC(=O)c1cc(-c2ccc(Cl)cc2)nn(-c2cnn(C)c2)c1=O is 16

Value of viability, T/C reported for the molecule CCc1c2c(nc3ccc(O)cc13)-c1cc3c(c(=O)n1C2)COC(=O)[C@]3(O)CC + Cc1cncc(-c2nc(NCCc3c[nH]c4ccccc34)c3ncn(C(C)C)c3n2)c1 is 60.3

Data origin: PubChem BioAssay AID1919001
